All figures here come from PubChem BioAssay (NCI).

- Test system: SK-MEL-28 melanoma
- assay-summary: NCI tumour cell line growth inhibition, 48 h
outcome-measure: GI50

1. Cc1[nH]c2ccccc2c(=O)c1CC=C(Cl)Cl ... 52.9 µM
2. COc1cc(/C=C/c2cc(/C=C/c3ccc(O)c(OC)c3)n(C(=O)Nc3ccc(C)cc3C)n2)ccc1O ... 0.509 µM
3. COc1ccc(CCN2COc3c([C@@H](C)CCC=C(C)C)ccc(C)c3C2)cc1OC ... 2.21 µM
4. C#Cc1c(I)n(C2OC(CO[Si](C)(C)C(C)(C)C)C3OC(C)(C)OC32)c(=O)[nH]c1=O (configuration not stated) ... 2 µM
5. COc1cccc(C#Cc2ccccc2C#CCCCCO)c1 ... 15.3 µM
6. CCSc1nc(SCC)c2cn[nH]c2n1 ... 64.6 µM
7. CCCCCCCCCCCCCCCCCCOc1ccccc1CC(=O)OCC[N+]1(C)CCCC1 ... 2.72 µM
8. ClCc1cccc(Cn2cnc3nc(Cl)nc(Cl)c32)c1 ... 0.503 µM
9. CC(C)(C[C@H]1CN(S(=O)(=O)c2cccc(C(F)(F)F)c2)c2cc(-c3cc(F)cc(OC(F)F)c3)ccc2O1)C(=O)O ... 10.9 µM
10. O=C1Nc2ccc(F)cc2/C1=C/c1ccc[nH]1 ... > 25 µM
11. Cc1ccc2[nH]c(O)c(N=Nc3ccc(S(N)(=O)=O)cc3)c2c1 ... 24.4 µM
12. Cn1c(=O)c(Cc2ccccc2F)cc2cnc(NC3CCOCC3)nc21 ... > 25 µM

###

Listed here: items and their measured TGI.
- Test system: MOLT-4 leukemia
- assay-summary: NCI tumour cell line growth inhibition, 48 h
outcome-measure: TGI

1) C=CCOc1ccc(C2C(C(=O)OCC)C(=O)CC(C)(O)C2C(=O)OCC)cc1OC (stereo unspecified) ... > 100 µM
2) CC(=O)N[C@H]1CSSC[C@@H](C(N)=O)NC(=O)[C@H](C(C)C)NC(=O)[C@H](C)NC(=O)[C@H](Cc2cnc[nH]2)NC1=O ... > 100 µM
3) CC12CCC(O)CC1CCC1C2CCC2(C)C(C(=O)CC(O)C(F)(F)F)CCC12 (stereo unspecified) ... 43.6 µM
4) C[N+]12CCCCC1C(CN1C(=O)Cc3c4ccccc4c(c4ccccc34)CC1=O)CCC2 (stereo unspecified) ... > 100 µM
5) COc1cc(C(=O)c2cc(C)c3[nH]c4ccc(C)cc4c3c2C)cc(OC)c1OC ... > 100 µM
6) O=[N+]([O-])/C(C(Cl)=C(Cl)Cl)=C(\N1CCCCC1)n1cncn1 ... > 50.5 µM
7) C=C(Cl)C(C)(Cl)CCC(Br)C(C)(C)Cl (stereo unspecified) ... > 100 µM
8) Oc1cccc(-c2nc3cc(F)ccc3s2)c1 ... 59 µM
9) C=C1CN2CC(=C)CN(C1)CS(=O)(=O)N1CC(=C)CN(CC(=C)C1)S(=O)(=O)N1CC(=C)CN(CC(=C)C1)S(=O)(=O)C2 ... > 100 µM
10) COc1nc2nccnc2c(=O)n1C ... > 10 µM
11) CCN(CC)c1ccc(N=Nc2ccc(-c3nc4ccc[n+](C)c4s3)cc2)cc1 ... 24.6 µM
12) CC(C)CC(O)P(=O)(O)O (stereo unspecified) ... > 100 µM
13) O=c1c2cc(Br)cc(Br)c2nc(CCCl)n1CCO ... > 100 µM
14) CC(=O)C(=CN1CCN(C(=O)c2ccco2)C1=S)C(C)=O ... > 100 µM
15) CCCCN=C(c1ccccc1)N1CCOCC1 ... > 100 µM
16) C1C[OH+]CC[OH+]CC[OH+]CC[OH+]CC[OH+]1.[Cl-].[V] ... > 100 µM
17) C=CCOc1ccc(C2(O)c3ccccc3C3=NCCCN32)cc1 (stereo unspecified) ... > 100 µM
18) Cc1ccc(S(=O)(=O)C(C#N)c2nc3ccccc3nc2-n2ccnc2)cc1 (stereo unspecified) ... > 100 µM
19) O=c1cc(NC2CCN(CCCc3ccccc3)CC2)c2cc(Cl)ccc2o1 ... 37.9 µM
20) CN(C)c1ccc(C2SCC(=O)N2c2ccc(Oc3ccc(Cl)cc3)c(Cl)c2)cc1 (stereo unspecified) ... > 100 µM
21) O=c1c2ccccc2c(=O)c2c1[nH]c1c(-c3ccccc3)c(-c3ccccc3)c(=O)c12 ... 13.3 µM

###

Listed here: items and their measured TGI.
- Tested on: SF-268 CNS
- assay-summary: NCI tumour cell line growth inhibition, 48 h
outcome-measure: TGI

1. Nc1ccc(C(=O)N2CCC[C@H]2CO)c(N)c1 ... > 100 µM
2. CN1COCc2c1ccc1cc3ccc4c(c3nc21)COCN4S(C)(=O)=O ... > 100 µM
3. CCCCON(OC(=O)c1ccc2ccc3cccc4ccc1c2c34)C(C)=O ... 40.5 µM
4. O=C(N/N=C/c1cc(Br)cc(Br)c1[O-])c1ccccc1O.O=C(N/N=C/c1cc(Br)cc(Br)c1[O-])c1ccccc1O.[Cu+2] ... 2.51 µM
5. O=C1Nc2ccc(F)cc2/C1=C/c1ccc[nH]1 ... > 25 µM
6. O=C1NC(=O)C(CC2CCCCCCCCCCC2=O)C(=O)N1 (stereo unspecified) ... > 100 µM
7. Nc1nc(Cl)cc(NCC2(CO)CCCC2)n1 ... > 100 µM
8. C=C1C(=O)C=C[C@]2(C)CC[C@H]3C(=C)C(=O)O[C@@H]3[C@@H]12 ... 11.7 µM
9. O=C1C(=Cc2ccccc2O)N=C(c2ccccc2)N1n1c(-c2ccccc2)nc2ccccc2c1=O ... 88.3 µM
10. OCc1ccc(C2CC(c3ccco3)=NN2c2ccccc2)o1 (stereo unspecified) ... > 100 µM
11. COc1ccc(NS(=O)(=O)c2ccc(NC(NC(=O)CC(C)C)(C(F)(F)F)C(F)(F)F)cc2)nn1 ... > 100 µM
12. CC(C)=CCNc1ncnc2c1ncn2CCC#N ... > 100 µM
13. S=C(Nc1ccc2c(c1)oc1ccccc12)c1cccnc1 ... 87.4 µM
14. COC(=O)C1=C(C)NC(C)=C(C(=O)OC)C1c1nc2sccn2c1[N+](=O)[O-] ... > 100 µM
15. Cc1nc2sc3ccccc3n2c(=O)c1N=Nc1ccc(Cl)cc1 ... > 100 µM
16. O=C1c2ccccc2C2(c3ccc(Cl)cc3)N[C@H]3CCCC[C@@H]3N12 (stereo partly specified) ... > 100 µM
17. O=C(O)[C@H](NS(=O)(=O)c1ccc([N+](=O)[O-])cc1)c1ccccc1 ... > 100 µM
18. C=CCOc1ccc(C2C(C(=O)OCC)C(=O)CC(C)(O)C2C(=O)OCC)cc1OC (stereo unspecified) ... > 100 µM
19. CC(C)(C)OC(=O)NCCCNC1(c2cc3ccccc3s2)CCCCC1 ... 33.8 µM
20. COc1cc(OC)c(C2c3cc4c(cc3OC(N3CCCC3)C2C)OCO4)c(OC)c1 (stereo unspecified) ... 40.3 µM
21. CCCCCCCCCCCC(=O)OCC1OC(OC)C(NC(=O)N(CCCl)N=O)C(O)C1O (stereo unspecified) ... 16.4 µM

###

Listed here: items and their measured GI50.
- Tested on: OVCAR-3 ovarian
- assay-summary: NCI tumour cell line growth inhibition, 48 h
outcome-measure: GI50

1) O=c1cccc(C#CC#CC2=CCCCC2)o1 ... 6660 nM
2) O=S(=O)(Nc1cc(Sc2cccc3cccnc23)c(O)c2ccccc12)c1ccccc1 ... 817 nM
3) CC1=C[C@H]2c3c(c(O)c(O)c4oc(-c5ccccc5)cc(=O)c34)[C@H](c3cc(O)c(O)c4oc(-c5ccccc5)cc(=O)c34)[C@H]2C(C)(C)C1 ... 1460 nM
4) CN(C)CCN1C(=O)c2ccc3c4c(ccc(c24)C1=O)C(=O)N(CCN=C=S)C3=O ... 26.7 nM
5) O=C(/C=C\c1ccc(NCc2ccc(C(=O)O)cc2)cc1)CCl ... 11700 nM
6) CCCCCCCCCCCCCCCCCCOc1ccccc1CC(=O)OCC[N+]1(C)CCCC1 ... 1630 nM
7) CC(C)(C[C@H]1CN(S(=O)(=O)c2cccc(C(F)(F)F)c2)c2cc(-c3cc(F)cc(OC(F)F)c3)ccc2O1)C(=O)O ... 3760 nM
8) Cc1ccc(-c2nc3ccc(Cl)cc3c(=O)n2N2C(=O)CSC2c2ccccc2Cl)cc1 (stereo unspecified) ... 5440 nM
9) CC1(C)[C@@H](OC(N)=O)[C@H]2O[C@H]2[C@]2(C=O)[C@H]3CC[C@]4(C)[C@@H](c5ccc(=O)oc5)[C@@H](Cl)C[C@]4(O)C3=CC[C@@H]12 ... 4.87 nM
10) Cc1[nH]c2ccccc2c(=O)c1CC=C(Cl)Cl ... 43500 nM
11) CCn1c(SCc2ccc(C)cc2)nnc1-c1nn(-c2ccc(Cl)cc2Cl)c(-c2ccc(Cl)cc2)c1C ... 1980 nM
